Provenance of the data: the supplement of paper PMC9170038

Test system: K4 kissing-loop RNA reporter;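 note: bound reporter read as fluorescence of individual clusters on recovered sequencing chips by microscopy, with normalized cluster intensities fitted with a binding model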
Test: apparent KD of K4 kissing-loop reporter; higher = weaker reporter binding
Details: Eterna round: R107; input ligand: arginine 13.2 mM
apparent KD of K4 kissing-loop reporter values by entry
Quick reminder: number only, in nM, skip the unit.

Worked cases, answers included:
{"Input Sequence": "GCGCAUGUUAAAGGAUAUAGCAGGUGAUACAAGAAAGUGAGUGAUGUUUAUGUAGAUGAUGAUAUGUUAGAAGGUUAACAAACGC [abcdefghijklmno]", "Observed Measurement": 624}
{"Input Sequence": "UAGUCCUAGUGAUCCUUAUCAAGUGGUGGGCGAGGACCGGUACGGCCGCCACUCGACUAUGCAGUGAUGUUGUAAUCCGGACAAU [Exclusion - Tryptophan A (Freestyle 12)]", "Observed Measurement": 488}
{"Input Sequence": "AAACGCUUGAAUAACAAGCGAAAUAAAAUUCGAGGACCGGUACGGCCGCCACUCGGGCUAACUGCGAGUGAUGUUCGAAAAUAAA [Mat - Mod of OpenEnded 3 - D17]", "Observed Measurement": 191}

Ask: Provide apparent KD of K4 kissing-loop reporter value for the following sequence: CGUUUAUAGCAGGAUACCAGUACCCAUUAAGUACGUUAAUAGUAGAGUGAUGUUCUAAAGUACCCUUGGCAGCUUCCCGUGACCC [ExTheophylB.X]
Result: 164

Ask: Provide apparent KD of K4 kissing-loop reporter value for the following sequence: UGCACCAGUGAUGUUGGUCGGCACCGAGAUACCAGCUGAUCUCUUAGCCCUUGGCAGCUCUUUAUUCGCGUUAUCAGUUUCUUCG [theeternabot_sameState_KL_Theo_A_16]
Result: 368

Ask: Provide apparent KD of K4 kissing-loop reporter value for the following sequence: GGAUAGGAUAGAGGAUAUGGGCUAGGCAAGAAUAACUUGUCUAGCAAAUCCAUGAGGAGUGAUGUUCCAGAAGGCUAUCCUAUCG [FmnBX 1 U9+A77]
Result: 160

Ask: Provide apparent KD of K4 kissing-loop reporter value for the following sequence: GCAGUGAUGUUGCGGAUGUACAGUGGCGUGCGAGGACCGGUACGGCCGCCACUCGUACAGAACAAGCUAAUACAUCGAUAGGUGA [whbob_SS_Tryp_A_m1]
Result: 294

Ask: Provide apparent KD of K4 kissing-loop reporter value for the following sequence: GUAUGUUCGAAAGAACGUACAUCUUCGGAAGGAGCGCGUGAAAACGCAGGUAGGUCGCCGAAGUUAUUAGGUAGUGAUGUUACCU [Arginine A K4 8]
Result: 99.1

Ask: Provide apparent KD of K4 kissing-loop reporter value for the following sequence: AAUUUACAAUAAUCAUUUAAAGGAUCAGAAGGAGCGUGUUAUAACACAGGUAGGUCGCUGAGCGAGUGAUGUUCGCUAUAUACAA [JR_ExcArginiA_Sub002]
Result: 97.7

Ask: Provide apparent KD of K4 kissing-loop reporter value for the following sequence: AGCGGCCAGUCGGCCGCCACUCCAAGCAGUGAUGUUGCUAAGUUUCUACAAGAGUGAUGUUCUUAGAGGACCGGGACUGAUGUGA [Exclusion Tryptophan B Gf 7]
Result: 240

Ask: Provide apparent KD of K4 kissing-loop reporter value for the following sequence: GACACACUUUCAGGUGUCCAGUGACUGGAUACCAGCAUGGAAACAUGCCCUUGGCAGCCAGAACUGGAAGUGAUGUUUCCAGUAA [Theo A Mod Design7 (Brourd)]
Result: 241

Ask: Provide apparent KD of K4 kissing-loop reporter value for the following sequence: AGUGAUGUAUGGCGGUUUGUCACUUAUAAUCAGGAUAUAUAAACAAAUAGAAGGGAUGGCGGAGUGAUGUUCCGCCGGCCGCCAU [FMN A Exl V5]
Result: 136

Ask: Provide apparent KD of K4 kissing-loop reporter value for the following sequence: ACUGGAAUUGUACUCCAGUGAUGUUGGAGGCAGGAUAUCCAGUAAAGGAGAAGGGCCAUCGCGCUAUUUAGCCGCAGGCGGCUAA [Atrilazaed]
Result: 130

Ask: Provide apparent KD of K4 kissing-loop reporter value for the following sequence: GGAUAGGAUAGAGGAUAUGGCUUACACAGAAAUAACUUGUUGUGUUUAUCCAUAGGGAGUGAUGUUCCAGAAGGCUGUCCUAUCG [MatMod 19 - Jieux - Exclusion - FMN B]
Result: 197

Ask: Provide apparent KD of K4 kissing-loop reporter value for the following sequence: CGAGUCGGUUCAGAUACCAGCCAAUUAGAGUCGAGUGAUGUUCGACAAUGAACGUCCAAAGGCCCUUGGCAGCUGGAUUGGGAAC [Same State Theophylline B GF 20]
Result: 61.1

Ask: Provide apparent KD of K4 kissing-loop reporter value for the following sequence: ACCAUCAAAGAUGGCCUCGACACCGCUGAUACCAGAGUGAAAACACUCCCUUGGCAGCAGGUGAGUGAUGUUCACAGUCGAAGGA [Omel KL Theo A SS B v1]
Result: 464

Ask: Provide apparent KD of K4 kissing-loop reporter value for the following sequence: AGACUACUGACAGGAUAUAACAUCCUAGUCGUAUACCGAAAGGUAUACGAUUCCCUUCUAGUGAUGUUAGAAGGGUCGGUAGUCA [Omei KL FMN B Exc B v13]
Result: 93.4
